target: T1, Anti-CD28 Fab (SEQ ID NOs: 202, 203); assay: phage ELISA, Fab on plate, CD28 antigen as competitor
T1 construct: biotinylated and captured on neutravidin coated plates in the phage ELISA
T1 sequence (VH, as listed by the source, chain 1 of 2): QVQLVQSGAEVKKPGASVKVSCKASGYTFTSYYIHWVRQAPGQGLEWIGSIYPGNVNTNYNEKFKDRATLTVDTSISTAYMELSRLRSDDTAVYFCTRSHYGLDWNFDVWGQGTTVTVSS
T1 sequence (VL, as listed by the source, chain 2 of 2): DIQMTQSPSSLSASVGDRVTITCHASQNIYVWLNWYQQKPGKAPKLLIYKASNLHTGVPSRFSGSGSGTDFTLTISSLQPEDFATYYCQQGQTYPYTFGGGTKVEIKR
Assay Endpoint: Anti-CD28 Fab signal in the presence of CD28
One number for each entry.

Count: 3. Required value per item: Anti-CD28 Fab signal in the presence of CD28.
1. YCDGHSEQYMAKCL [Phage-687]
2. YCAGHASEYMAKCL [Phage-650]
3. YCDGHAEQYMSKCL [Phage-623]

Result:
[0.06, 0.08, 0.07]
